src = paper PMC10397247

target.of.assay: T1, P5mSN
T1 chain: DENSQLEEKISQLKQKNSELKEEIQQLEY
experimental.protocol: two-hybrid library CCNG1;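 also: natural log of median RNA to DNA barcode read ratio; higher means stronger binding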
reported.property: interaction score
Answer as a number with no unit attached.

{"columns": ["binder", "interaction score"],
 "data": [
  ["DENSQLEEKISQLKQKNSELKEEIQQLEY [P5mSN]", -1.4],
  ["DKIEELKEKNSQLKEKNEELKQKIYELKE [P2mSN]", -0.724],
  ["DEIQQLEEEISQLEQKNSELKEKNQELKY [P3mSN]", -0.781]
]}

Now take the following binder into account.
Could you share which interaction score value was measured for DENQSLEQEISQLEQEIQQLEQKNSELKY [P11mSN] ?
-0.097
